Each entry below carries its recorded IC80 (µg/ml) with constrains.
Biological target: HIV Env, isolate WITO4160.33 (HIV)
Assay: cell-based or functional assay
Note: unit µg/mL is implicit; provide only the numeric part.

Recorded results for 2 binders are shown here.
ePGDM5 (antibody, V domains shown) VH: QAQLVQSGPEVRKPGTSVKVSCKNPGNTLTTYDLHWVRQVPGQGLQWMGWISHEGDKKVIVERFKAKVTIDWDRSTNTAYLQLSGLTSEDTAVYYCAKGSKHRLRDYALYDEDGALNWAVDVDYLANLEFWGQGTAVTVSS VL: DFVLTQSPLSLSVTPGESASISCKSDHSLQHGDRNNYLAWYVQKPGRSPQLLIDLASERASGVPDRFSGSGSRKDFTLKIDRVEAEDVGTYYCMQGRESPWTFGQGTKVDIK : 0.015
PGDM1400 (antibody, V domains shown) VH: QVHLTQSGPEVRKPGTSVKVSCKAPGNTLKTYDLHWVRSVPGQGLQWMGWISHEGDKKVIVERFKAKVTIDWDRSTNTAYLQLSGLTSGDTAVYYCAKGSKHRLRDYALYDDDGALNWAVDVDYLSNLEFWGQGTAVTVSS VL: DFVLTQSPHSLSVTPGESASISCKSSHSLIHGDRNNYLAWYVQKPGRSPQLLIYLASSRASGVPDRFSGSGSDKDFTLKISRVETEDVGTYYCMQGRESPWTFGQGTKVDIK : 0.013

Kindly note the recorded IC80 (µg/ml) with constrains for ePGDM13 (antibody, V domains shown) VH: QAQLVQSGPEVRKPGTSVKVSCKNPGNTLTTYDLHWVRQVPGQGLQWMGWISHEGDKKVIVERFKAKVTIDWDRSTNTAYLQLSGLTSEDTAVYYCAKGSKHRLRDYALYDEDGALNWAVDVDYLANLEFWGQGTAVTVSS VL: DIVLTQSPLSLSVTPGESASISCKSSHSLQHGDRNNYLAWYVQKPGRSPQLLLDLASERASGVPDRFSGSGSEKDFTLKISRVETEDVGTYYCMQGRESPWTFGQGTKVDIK , which is 0.013

Values were extracted from patent US20230134571A1.
